Test system: MDA-MB-468 breast
ASSAY NAME: NCI tumour cell line growth inhibition, 48 h
Hi there, I'd appreciate the recorded GI50 for every entry that follows.

input: What GI50 value was documented for this compound, CCOc1ccc(Nc2ccnc3cc(Cl)ccc23)cc1 ?
output: 43.1 µM

input: What GI50 value was documented for this compound, COc1ccc2cc(C(=O)N3CCC([C@@H](C)C(=O)NCc4ccc5c(c4)OCO5)CC3)[nH]c2c1 ?
output: 86.2 µM

input: What GI50 value was documented for this compound, CC[C@H](C)[C@H](NC(=O)c1ncccn1)C(=O)N(C)[C@H](C[C@@H](OC(C)=O)c1nc(C(=O)N[C@@H](Cc2ccccc2)C[C@H](C)C(=O)OC)cs1)C(C)C ?
output: 0.757 µM

input: What GI50 value was documented for this compound, CC1(C)CC[C@]2(C(=O)NCCNCCN)CC[C@]3(C)C(=CC[C@@H]4[C@@]5(C)CCC(=O)C(C)(C)[C@@H]5CC[C@]43C)[C@@H]2C1 ?
output: 1.71 µM

input: What GI50 value was documented for this compound, Cc1cccc2c(=O)c3c(sc12)c(NCCCN)nc1ccccc13 ?
output: 1.43 µM

input: What GI50 value was documented for this compound, O=C(N/N=C\c1ccc(N(CCCl)CCCl)cc1)c1cccnc1 ?
output: 11 µM

input: What GI50 value was documented for this compound, N#Cc1c(N)c(C(=O)c2ccc3c(c2)OCCO3)n2c1CCCC2 ?
output: 2.47 µM

input: What GI50 value was documented for this compound, CCCCCCCCCCCCCCCCCC1=NC(C)(C)CN1C(C)(C)CO ?
output: 1.21 µM

input: What GI50 value was documented for this compound, CC1(C)N=C(N)N=C(N)N1c1cccc(CCCCc2ccc(Cl)c(S(=O)(=O)F)c2)c1 ?
output: 10.6 µM

input: What GI50 value was documented for this compound, O=C(N/N=C/c1ccc([N+](=O)[O-])cc1)c1ccccc1Nc1ccnc(C(F)(F)F)c1 ?
output: 15.8 µM

input: What GI50 value was documented for this compound, CCCCNC(=O)Oc1ccc(/C(=C(\C)c2ccc(OC)cc2)c2ccc(OCCN3CCCCC3)cc2)cc1 ?
output: 2.08 µM

input: What GI50 value was documented for this compound, COc1ccc(-c2c(NC(=O)Nc3ccc(Cl)c(C(F)(F)F)c3)cnn2-c2ccc(S(N)(=O)=O)cc2)cc1 ?
output: 2.05 µM

input: What GI50 value was documented for this compound, Nc1ccccc1NC(=O)c1ccc(NC(=O)C/C=C/c2cccnc2)cc1 ?
output: 0.915 µM
